# protocol text: Preliminary precipitation studies (MeOH/water)
# Assay type: physicochemical
# reported conditions: aqueous with cosolvent or surfactant or cyclodextrin; Experiment 1; MeOH/Water 1:3; Normal addition; 10 mL/g; 25° C.
measurement label: solubility (µg/mL)
Give your result in µg/mL as a bare value.

# solubility (compound: CC(C)(C)OC(=O)NCCCC[C@H](N)C(=O)N[C@@H](Cc1ccccc1)C(N)=O [Compound I, L-Lys(Boc)-Phe-NH2] ) is 7000

----------
# protocol text: Preliminary single-solvent solubility, determined by HPLC (response curve)
# Type: physicochemical
# reported conditions: organic solvent or mixture, solvent iPrOAc
measurement label: solubility
Please answer using a numeric value trailed by its unit.

# solubility (compound: CC(C)(C)OC(=O)NCCCC[C@H](N)C(=O)N[C@@H](Cc1ccccc1)C(N)=O ) is 5.1 mg/mL

----------
# protocol text: In process precipitation results (MeOH/water)
# Assay type: physicochemical
# reported conditions: aqueous with cosolvent or surfactant or cyclodextrin; Experiment 2447-47; MeOH/Water 1:5; 10 mL/g
measurement label: solubility (µg/mL)
Give your result in µg/mL as a bare value.

# solubility (compound: CC(C)(C)OC(=O)NCCCC[C@H](N)C(=O)N[C@@H](Cc1ccccc1)C(N)=O ) is 4200

----------
# protocol text: Preliminary single-solvent solubility, determined by HPLC (response curve)
# Format: physicochemical
# reported conditions: organic solvent or mixture, solvent MeOAc
measurement label: solubility (mg/mL)
Give your result in mg/mL as a bare value.

# solubility (compound: CC(C)(C)OC(=O)NCCCC[C@H](N)C(=O)N[C@@H](Cc1ccccc1)C(N)=O ) is 18.2

----------
# protocol text: Preliminary single-solvent solubility, determined by HPLC (response curve)
# Type: physicochemical
# reported conditions: solvent Water
measurement label: solubility (µg/mL)
Give your result in µg/mL as a bare value.

# solubility (compound: CC(C)(C)OC(=O)NCCCC[C@H](N)C(=O)N[C@@H](Cc1ccccc1)C(N)=O [Compound I, L-Lys(Boc)-Phe-NH2] ) is 4100

----------
# protocol text: In process precipitation results (MeOH/water)
# Format: physicochemical
# reported conditions: aqueous with cosolvent or surfactant or cyclodextrin; Experiment 2447-41; MeOH/Water 1:9; 13 mL/g
measurement label: solubility (µg/mL)
Give your result in µg/mL as a bare value.

# solubility (compound: CC(C)(C)OC(=O)NCCCC[C@H](N)C(=O)N[C@@H](Cc1ccccc1)C(N)=O ) is 2500

----------
# protocol text: Preliminary precipitation studies (MeOH/water)
# Type: physicochemical
# reported conditions: aqueous with cosolvent or surfactant or cyclodextrin; Experiment 2; MeOH/Water 1:5; Normal addition; 10 mL/g; 25° C.
measurement label: solubility (µg/mL)
Give your result in µg/mL as a bare value.

# solubility (compound: CC(C)(C)OC(=O)NCCCC[C@H](N)C(=O)N[C@@H](Cc1ccccc1)C(N)=O ) is 5000
